pIC50 values, listed per item
# Test system: HeLa
# assay-explanation: Cytotoxicity against human HeLa cells assessed as reduction in cell viability after 72 hrs by alamar blue assay
# Format: cell-based
pIC50: −log10 of the molar value.

compound: CCC(C)[C@H](NC(=O)c1cc(O)c2c(c1)C(=O)c1cc(O)cc(O)c1C2=O)C(=O)OC (stereo not given in full)
pIC50: < 5.00
//
compound: O=C1c2cc(CO)cc(O)c2C(=O)c2c1cc(O)c(Cl)c2O
pIC50: < 5.00
//
compound: CC(C)[C@H](NC(=O)c1cc(O)c2c(c1)C(=O)c1cc(O)cc(O)c1C2=O)C(=O)O
pIC50: < 5.00
//
compound: O=C(O)c1cc(O)c2c(c1)C(=O)c1cc(O)cc(O)c1C2=O
pIC50: < 5.00
//
compound: CCC(C)[C@H](NC(=O)c1cc(O)c2c(c1)C(=O)c1cc(O)cc(O)c1C2=O)C(=O)O (stereo not given in full)
pIC50: < 5.00
//
compound: CC(C)C[C@H](NC(=O)c1cc(O)c2c(c1)C(=O)c1cc(O)c(Cl)c(O)c1C2=O)C(=O)O
pIC50: < 5.00
//
compound: C[C@H](NC(=O)c1cc(O)c2c(c1)C(=O)c1cc(O)cc(O)c1C2=O)C(=O)O
pIC50: < 5.00
//
compound: CC(C)[C@H](NC(=O)c1cc(O)c2c(c1)C(=O)c1cc(O)c(Cl)c(O)c1C2=O)C(=O)O
pIC50: < 5.00
//
compound: COC(=O)[C@@H](NC(=O)c1cc(O)c2c(c1)C(=O)c1cc(O)cc(O)c1C2=O)C(C)C
pIC50: < 5.00
//
compound: CCC(C)[C@H](NC(=O)c1cc(O)c2c(c1)C(=O)c1cc(O)c(Cl)c(O)c1C2=O)C(=O)O (stereo not given in full)
pIC50: < 5.00

---

# Tested on: Jurkat
# assay-explanation: Anti-inflammatory activity in PMA/ionomycin stimulated human Jurkat T cells assessed as reduction in IL-2 secretion preincubated for 20 mins followed by PMA/ionomycin stimulation measured after 12 hrs by ELISA
# Format: functional, cell-based

compound: CC(C)[C@H](NC(=O)c1cc(O)c2c(c1)C(=O)c1cc(O)c(Cl)c(O)c1C2=O)C(=O)O
system-tested: Jurkat
IC50 (µM): 5.1
--
compound: CCC(C)[C@H](NC(=O)c1cc(O)c2c(c1)C(=O)c1cc(O)cc(O)c1C2=O)C(=O)OC (stereo not given in full)
system-tested: Jurkat
IC50 (µM): 12
--
compound: CCC(C)[C@H](NC(=O)c1cc(O)c2c(c1)C(=O)c1cc(O)cc(O)c1C2=O)C(=O)O (stereo not given in full)
system-tested: Jurkat
IC50 (µM): 5.4
--
compound: C=CC[C@@H]1/C=C(\C)C[C@H](C)C[C@H](OC)[C@H]2O[C@@](O)(C(=O)C(=O)N3CCCC[C@H]3C(=O)O[C@H](/C(C)=C/[C@@H]3CC[C@@H](O)[C@H](OC)C3)[C@H](C)[C@@H](O)CC1=O)[C@H](C)C[C@@H]2OC [TACROLIMUS ANHYDROUS]
system-tested: Jurkat
IC50 (µM): 5.8
--
compound: COC(=O)[C@@H](NC(=O)c1cc(O)c2c(c1)C(=O)c1cc(O)cc(O)c1C2=O)C(C)C
system-tested: Jurkat
IC50 (µM): 4.1
